TESTED_SYSTEM: CYP3A4 (P450 3A4) (Homo sapiens, UniProt P08684)
Construct: purchased Invitrogen (Carlsbad, Calif.)
Sequence (P08684 whole entry): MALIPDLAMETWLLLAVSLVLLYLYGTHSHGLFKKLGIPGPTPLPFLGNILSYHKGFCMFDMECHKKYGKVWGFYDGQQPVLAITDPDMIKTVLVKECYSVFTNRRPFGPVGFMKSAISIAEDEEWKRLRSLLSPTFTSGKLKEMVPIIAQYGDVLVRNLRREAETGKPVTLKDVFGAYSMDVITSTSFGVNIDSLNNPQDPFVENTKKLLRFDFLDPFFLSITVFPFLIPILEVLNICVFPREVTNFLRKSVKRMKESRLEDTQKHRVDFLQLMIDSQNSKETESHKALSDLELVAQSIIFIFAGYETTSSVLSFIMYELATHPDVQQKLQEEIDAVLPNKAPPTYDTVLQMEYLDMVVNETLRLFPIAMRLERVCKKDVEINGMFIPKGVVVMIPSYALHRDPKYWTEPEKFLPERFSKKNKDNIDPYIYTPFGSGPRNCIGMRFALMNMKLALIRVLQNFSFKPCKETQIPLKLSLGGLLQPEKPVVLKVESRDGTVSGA
PROTOCOL_NOTES: Vivid P450 3A4 activity assay with NADPH regenerating system
Assay type: biochemical
RECORDED_CONDITIONS: human, recombinant human P450 3A4 with rabbit NADPH P450 reductase, pH 8, probe DBOMF 2 μM; 1 μM, 2 μM DBOMF; read-out: inhibition of the enzyme activity (P450 3A4)
OBSERVATION_TYPE: inhibition at 8 min, 1 μM

Which measured inhibition at 8 min, 1 μM belongs to CC(=O)N1CCN(c2ccc(OCC3COC(Cn4ccnc4)(c4ccc(Cl)cc4Cl)O3)cc2)CC1 (stereo not shown) [ketoconazole, reference compound] , tested on CYP3A4 (P450 3A4) (Homo sapiens, UniProt P08684)?
> 90%
